Tested on: Plasmodium falciparum
Assay: Screen against P. falciparum Asexual Blood Stage (ABS), at 5uM
Format: functional, Dd2
Settings: tested at 5 uM
Out of some 65,000 compounds screened, about 2,100 (3.2%) showed an effect of 50% or more. The median lay at about -52%. The full list was thinned out, with strong results kept by preference.
Threshold -20%. INHIBITION below it: YES. INHIBITION at it or above: NO.

Below are worked cases with known answers.
COc1cccc(CN2C[C@@H]3COC[C@]3(COc3cccnc3)C2)c1 = NO
CC(C)(C(=O)NCC1CCN(Cc2ncc[nH]2)C1)c1ccccc1 (centres undefined) = NO

Threshold test, INHIBITION < -20%: CCCNCc1cn(C)nc1-c1cccnc1
YES

Same read-out for Cc1cc(C)n(CC2CCCN2C(=O)c2c(C)noc2C)n1 (centres undefined) ?
YES

Same read-out for Cn1cc(CNCCc2cccnc2)c(-c2cccnc2)n1 ?
YES

The reported measurements were obtained from ChEMBL document CHEMBL4513216.
